experimentalSystem: Cytochrome P450 1A2 (Homo sapiens)
Sequence (P05177 whole entry): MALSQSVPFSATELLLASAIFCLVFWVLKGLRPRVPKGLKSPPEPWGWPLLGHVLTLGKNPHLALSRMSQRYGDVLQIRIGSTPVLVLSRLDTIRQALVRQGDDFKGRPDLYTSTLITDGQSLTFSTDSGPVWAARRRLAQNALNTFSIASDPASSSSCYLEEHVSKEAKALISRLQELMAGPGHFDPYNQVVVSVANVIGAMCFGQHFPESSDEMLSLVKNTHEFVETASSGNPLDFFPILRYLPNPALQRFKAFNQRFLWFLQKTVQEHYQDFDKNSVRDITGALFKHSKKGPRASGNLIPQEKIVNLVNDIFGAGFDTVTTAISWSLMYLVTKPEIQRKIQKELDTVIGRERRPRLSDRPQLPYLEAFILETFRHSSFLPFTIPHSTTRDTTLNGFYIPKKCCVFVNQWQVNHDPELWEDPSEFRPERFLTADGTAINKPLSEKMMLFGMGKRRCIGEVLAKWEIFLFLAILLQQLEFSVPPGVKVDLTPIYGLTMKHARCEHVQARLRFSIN
testSummary: Inhibition of CYP1A2
Type: ADME
pIC50: −log10 of the molar value.
Provide the reported pIC50 of each item.

Please report the recorded pIC50 for `Cc1cc(CCCOc2c(C)cc(-c3noc(C(F)(F)F)n3)cc2C)on1` .
< 5.00

I'd like to know its pIC50. The compound in question is `Cc1ccc(N2CC(COc3ccc(-c4noc(C)n4)cc3)C2)nn1`
< 5.00

---

testSummary: Half life in rat at 2 mg/kg, iv
Format: ADME, organism-based
Parameters: dose 2 mg/kg, route intravenous
assayContext: in vivo
assayReadout: half-life (h)
Give a bare numeral; the unit h is implied.

I have this compound here, `Cc1ccc(N2CC(COc3ccc(-c4noc(C)n4)cc3)C2)nn1` , and I need its recorded half-life.
2.2

---

Give pIC50 for every item shown.
experimentalSystem: Cytochrome P450 2C19 (Homo sapiens)
Sequence (P33261 whole entry): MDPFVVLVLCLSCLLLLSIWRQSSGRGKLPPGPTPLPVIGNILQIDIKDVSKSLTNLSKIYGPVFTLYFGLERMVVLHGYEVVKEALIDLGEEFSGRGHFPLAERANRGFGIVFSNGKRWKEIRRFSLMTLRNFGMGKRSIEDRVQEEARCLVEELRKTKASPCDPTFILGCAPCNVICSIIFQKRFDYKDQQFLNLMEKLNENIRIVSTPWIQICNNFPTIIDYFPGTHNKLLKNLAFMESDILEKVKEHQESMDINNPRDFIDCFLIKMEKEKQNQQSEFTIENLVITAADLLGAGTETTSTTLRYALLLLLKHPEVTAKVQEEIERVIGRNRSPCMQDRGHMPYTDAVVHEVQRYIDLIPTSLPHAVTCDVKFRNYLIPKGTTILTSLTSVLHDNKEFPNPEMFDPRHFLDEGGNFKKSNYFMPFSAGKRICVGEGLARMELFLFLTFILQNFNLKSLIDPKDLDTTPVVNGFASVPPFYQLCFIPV
testSummary: Inhibition of CYP2C19
Type: ADME
pIC50: −log10 of the molar value.

I'd like to know its pIC50. The molecule in question is `Cc1ccc(N2CC(COc3ccc(-c4noc(C)n4)cc3)C2)nn1`
< 5.00

Item Cc1cc(CCCOc2c(C)cc(-c3noc(C(F)(F)F)n3)cc2C)on1 [PLECONARIL] has what recorded pIC50?
< 5.00

---

experimentalSystem: Cytochrome P450 2D6 (Homo sapiens)
testSummary: Inhibition of CYP2D6
Assay type: ADME
assayReadout: pIC50
Answer as the number alone; pIC50 is minus log10 of concentration in mol/L.

# query: pIC50 of entry `Cc1cc(CCCOc2c(C)cc(-c3noc(C(F)(F)F)n3)cc2C)on1`
5.20

---

Provide the reported pIC50 of each item.
experimentalSystem: Cytochrome P450 2D6 (Homo sapiens, UniProt P10635)
Sequence (P10635 whole entry): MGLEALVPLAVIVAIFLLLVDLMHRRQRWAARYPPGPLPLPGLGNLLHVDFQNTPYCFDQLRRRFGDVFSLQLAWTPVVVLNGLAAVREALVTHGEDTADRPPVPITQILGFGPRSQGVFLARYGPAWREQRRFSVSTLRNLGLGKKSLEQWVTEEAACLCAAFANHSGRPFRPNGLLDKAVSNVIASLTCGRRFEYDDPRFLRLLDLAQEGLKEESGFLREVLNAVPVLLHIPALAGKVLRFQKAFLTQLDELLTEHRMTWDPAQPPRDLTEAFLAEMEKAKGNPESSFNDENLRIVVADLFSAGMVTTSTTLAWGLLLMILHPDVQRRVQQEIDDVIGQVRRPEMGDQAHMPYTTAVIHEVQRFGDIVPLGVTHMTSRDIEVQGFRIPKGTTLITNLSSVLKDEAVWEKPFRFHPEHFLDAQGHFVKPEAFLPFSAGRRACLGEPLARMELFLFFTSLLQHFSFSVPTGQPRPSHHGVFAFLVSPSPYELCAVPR
testSummary: Time dependent inhibition of CYP2D6
Type: ADME
pIC50: −log10 of the molar value.

I am curious: what pIC50 value has been reported for `Cc1cc(CCCOc2c(C)cc(-c3noc(C(F)(F)F)n3)cc2C)on1` ?
< 4.30

Report pIC50 for `Cc1ccc(N2CC(COc3ccc(-c4noc(C)n4)cc3)C2)nn1` please.
< 4.30

---

testSummary: Apparent permeability of compound by PAMPA
Type: ADME
assayReadout: Papp (×10⁻⁶ cm/s)
Give just the number in ×10⁻⁶ cm/s; leave the unit off.

Given `Cc1ccc(N2CC(COc3ccc(-c4noc(C)n4)cc3)C2)nn1` , state its recorded Papp.
47

---

testSummary: Chemical stability of compound assessed as half life
Format: physicochemical
assayReadout: half-life

What value of half-life has been reported for the following compound? `Cc1ccc(N2CC(COc3ccc(-c4noc(C)n4)cc3)C2)nn1`
> 200 h

---

experimentalSystem: Cytochrome P450 2C9 (Homo sapiens)
testSummary: Time dependent inhibition of CYP2C9
Type: ADME
Record form. Attribute: IC50. Fill in for each entry.

Entry Cc1cc(CCCOc2c(C)cc(-c3noc(C(F)(F)F)n3)cc2C)on1 [PLECONARIL] has what IC50?
> 50.1 µM

I have this molecule here, `Cc1ccc(N2CC(COc3ccc(-c4noc(C)n4)cc3)C2)nn1` , and I need its recorded IC50.
> 50.1 µM

---

testSummary: Intrinsic clearance in human microsomes after 45 mins by HPLC method
Type: ADME, Microsome
assayReadout: microsomal CLint (µL/min/mg)
Answer with a number only, understood to be in µL/min/mg.

Given the molecule `Cc1cc(CCCOc2c(C)cc(-c3noc(C(F)(F)F)n3)cc2C)on1` , what is its reported microsomal CLint?
22

microsomal CLint lookup needed for `Cc1ccc(N2CC(COc3ccc(-c4noc(C)n4)cc3)C2)nn1` , thanks.
26

---

experimentalSystem: Nuclear receptor subfamily 1 group I member 2 (Homo sapiens)
Sequence (O75469 whole entry): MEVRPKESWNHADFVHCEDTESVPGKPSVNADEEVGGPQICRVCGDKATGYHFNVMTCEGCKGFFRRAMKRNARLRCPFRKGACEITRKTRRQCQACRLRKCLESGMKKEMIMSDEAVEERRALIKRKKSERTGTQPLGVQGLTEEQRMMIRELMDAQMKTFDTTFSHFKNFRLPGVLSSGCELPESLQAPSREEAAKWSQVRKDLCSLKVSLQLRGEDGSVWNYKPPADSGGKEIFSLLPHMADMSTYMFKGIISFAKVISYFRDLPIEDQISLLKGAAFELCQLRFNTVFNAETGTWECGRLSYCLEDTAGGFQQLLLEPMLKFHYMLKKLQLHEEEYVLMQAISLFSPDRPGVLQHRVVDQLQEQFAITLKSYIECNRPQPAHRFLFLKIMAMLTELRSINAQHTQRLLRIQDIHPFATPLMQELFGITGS
testSummary: Activation of human PXR expressed in african green monkey CV1 cells transfected with pSG5-hPXRDATG and (ER6)3-tk-CAT reporter
assayReadout: EC50 (µM)
Provide the reading as a plain figure in µM.

Report EC50 for `Cc1ccc(N2CC(COc3ccc(-c4noc(C)n4)cc3)C2)nn1` please.
31.6

Can you share its EC50? I mean this compound: `Cc1cc(CCCOc2c(C)cc(-c3noc(C(F)(F)F)n3)cc2C)on1`
0.251

---

testSummary: Unbound fraction in rat plasma
Assay type: ADME, cell-free
assayReadout: fraction unbound
Lab note: record just the number, no unit beside it.

Sample `Cc1ccc(N2CC(COc3ccc(-c4noc(C)n4)cc3)C2)nn1` — what was its fraction unbound?
0.05

---

testSummary: Volume of distribution at steady state in rat at 2 mg/kg, iv
Format: ADME, organism-based
Parameters: dose 2 mg/kg, route intravenous
assayContext: in vivo, read-out: Vdss
assayReadout: Vd

Which measured Vd value corresponds to `Cc1ccc(N2CC(COc3ccc(-c4noc(C)n4)cc3)C2)nn1` ?
1.5 L/kg

---

Would you kindly list hepatocyte CLint for each of these molecules?
testSummary: Intrinsic clearance in Sprague-Dawley rat hepatocytes assessed per 10^6 cells preincubated for 5 mins measured after 90 mins
Format: ADME, cell-based, Liver, Hepatocyte
Put down the number, then write its unit next to it.

I have this molecule here, Cc1cc(CCCOc2c(C)cc(-c3noc(C(F)(F)F)n3)cc2C)on1 [PLECONARIL] , and I need its recorded hepatocyte CLint.
20 µL/min/1e6 cells

Using the record for `Cc1ccc(N2CC(COc3ccc(-c4noc(C)n4)cc3)C2)nn1` , report its hepatocyte CLint.
5 µL/min/1e6 cells

---

experimentalSystem: UniProt P05177
testSummary: Time dependent inhibition of CYP1A2
Type: ADME
pIC50: −log10 of the molar value.
Could you please report measured pIC50 for the items listed next?

Dear colleague, I am looking for the recorded pIC50 of the following compound: `Cc1ccc(N2CC(COc3ccc(-c4noc(C)n4)cc3)C2)nn1`
< 4.30

I would be grateful if you could share the reported pIC50 for Cc1cc(CCCOc2c(C)cc(-c3noc(C(F)(F)F)n3)cc2C)on1 [PLECONARIL] .
< 4.30

---

testSummary: Lipophilicity, log D of the compound
Type: physicochemical
assayContext: octanol/water
assayReadout: logD
Could you keep your reply to the number by itself?

Which logD reading was recorded for the compound `Cc1ccc(N2CC(COc3ccc(-c4noc(C)n4)cc3)C2)nn1` ?
2.6

---

testSummary: Oral bioavailability in rat
Type: ADME, organism-based
assayContext: in vivo
assayReadout: bioavailability (%)
Reply numerically in %, unit not repeated.

Look up bioavailability for this compound: `Cc1ccc(N2CC(COc3ccc(-c4noc(C)n4)cc3)C2)nn1`
60

---

testSummary: Aqueous equilibrium solubility of the compound by shake-flask technique
Format: physicochemical
assayContext: buffer
assayReadout: solubility thermodynamic (µM)
Write the number in µM without appending the unit.

Given `Cc1ccc(N2CC(COc3ccc(-c4noc(C)n4)cc3)C2)nn1` , state its recorded solubility thermodynamic.
125

---

experimentalSystem: Cytochrome P450 2C9 (Homo sapiens, UniProt P11712)
Sequence (P11712 whole entry): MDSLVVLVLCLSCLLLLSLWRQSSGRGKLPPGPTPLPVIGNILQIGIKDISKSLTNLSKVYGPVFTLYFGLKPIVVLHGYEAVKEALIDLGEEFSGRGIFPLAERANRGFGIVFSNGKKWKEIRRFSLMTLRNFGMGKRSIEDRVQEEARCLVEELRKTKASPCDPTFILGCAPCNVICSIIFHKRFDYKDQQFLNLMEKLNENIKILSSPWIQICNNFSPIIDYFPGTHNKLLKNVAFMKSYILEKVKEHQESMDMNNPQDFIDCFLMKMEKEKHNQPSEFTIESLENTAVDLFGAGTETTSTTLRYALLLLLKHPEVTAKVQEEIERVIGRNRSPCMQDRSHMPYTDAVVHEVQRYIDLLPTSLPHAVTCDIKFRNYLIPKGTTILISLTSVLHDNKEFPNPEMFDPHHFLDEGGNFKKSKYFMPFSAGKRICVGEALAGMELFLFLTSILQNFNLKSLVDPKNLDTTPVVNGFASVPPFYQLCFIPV
testSummary: Inhibition of CYP2C9
Type: ADME
pIC50: −log10 of the molar value.
assayReadout: pIC50

Would you kindly share the measured pIC50 for `Cc1cc(CCCOc2c(C)cc(-c3noc(C(F)(F)F)n3)cc2C)on1` ?
< 5.00

Looking for the measured pIC50 of `Cc1ccc(N2CC(COc3ccc(-c4noc(C)n4)cc3)C2)nn1` , can you help?
< 5.00

---

experimentalSystem: Cytochrome P450 3A4 (Homo sapiens, UniProt P08684)
Sequence (P08684 whole entry): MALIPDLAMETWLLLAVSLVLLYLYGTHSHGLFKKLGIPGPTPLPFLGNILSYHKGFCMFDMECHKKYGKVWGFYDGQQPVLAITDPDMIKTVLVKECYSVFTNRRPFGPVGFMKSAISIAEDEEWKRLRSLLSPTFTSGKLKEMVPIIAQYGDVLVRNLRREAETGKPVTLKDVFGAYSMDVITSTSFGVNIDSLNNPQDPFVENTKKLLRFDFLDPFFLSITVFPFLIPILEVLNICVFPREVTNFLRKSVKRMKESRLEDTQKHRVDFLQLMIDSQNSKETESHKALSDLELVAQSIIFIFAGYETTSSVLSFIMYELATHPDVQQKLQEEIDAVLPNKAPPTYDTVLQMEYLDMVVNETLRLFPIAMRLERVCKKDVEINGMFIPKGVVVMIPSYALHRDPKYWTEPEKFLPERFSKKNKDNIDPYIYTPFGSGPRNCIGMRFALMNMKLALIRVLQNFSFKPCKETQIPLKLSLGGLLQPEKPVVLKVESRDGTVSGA
testSummary: Inhibition of CYP3A4
Assay type: ADME
assayReadout: IC50

Would you mind telling me what IC50 value was observed for `Cc1ccc(N2CC(COc3ccc(-c4noc(C)n4)cc3)C2)nn1` ?
> 10 µM

src = ChEMBL document CHEMBL1833869
